These data points were gathered from PubChem BioAssay (NCI).

tested on: SW-620 colon; assay: NCI-60 one-dose screen, 48 h; settings: 10 µM unless noted
This is part of a sample that, as a whole, favours compounds with a hit. Of some 83,000 tested, about 20% had one in any assay. The source made the active and inactive calls. The calls were made as follows: active = growth percent below 10; inactive = the rest.
Your answer must be one of the following: t (active), f (inactive)

Write down the call the test reported for this compound. Item: Cc1ccc(NC(=O)C(Cl)Cl)cc1
f

Write down the call the test reported for this compound. Item: COC(=O)/C(=C\c1ccc(OC)cc1)C(=O)N1c2ccccc2Sc2ccccc21
f

Write down the call the test reported for this compound. Item: Cn1nnnc1-c1ccc(N)cc1
f

Write down the call the test reported for this compound. Item: COc1cc(-c2ncn(/C=C\c3nnco3)n2)cc(C(F)(F)F)c1
f

Write down the call the test reported for this compound. Item: COc1ccc(-n2sc(=O)n(Cc3ccc(COC(=O)C(C)c4ccc(CC(C)C)cc4)cc3)c2=O)cc1 (stereo unspecified)
t

Write down the call the test reported for this compound. Item: Cc1ccc(-n2nnc(C3=NCCc4c3[nH]c3ccc(Cl)cc43)c2C)cc1
f
